target: ALPP (Homo sapiens, UniProt P05187); assay: Epitope binning by BLI competition assay; format: binding; settings: BLI competition on immobilised ALPP
Sequence (P05187 with tags, fused parts or gaps): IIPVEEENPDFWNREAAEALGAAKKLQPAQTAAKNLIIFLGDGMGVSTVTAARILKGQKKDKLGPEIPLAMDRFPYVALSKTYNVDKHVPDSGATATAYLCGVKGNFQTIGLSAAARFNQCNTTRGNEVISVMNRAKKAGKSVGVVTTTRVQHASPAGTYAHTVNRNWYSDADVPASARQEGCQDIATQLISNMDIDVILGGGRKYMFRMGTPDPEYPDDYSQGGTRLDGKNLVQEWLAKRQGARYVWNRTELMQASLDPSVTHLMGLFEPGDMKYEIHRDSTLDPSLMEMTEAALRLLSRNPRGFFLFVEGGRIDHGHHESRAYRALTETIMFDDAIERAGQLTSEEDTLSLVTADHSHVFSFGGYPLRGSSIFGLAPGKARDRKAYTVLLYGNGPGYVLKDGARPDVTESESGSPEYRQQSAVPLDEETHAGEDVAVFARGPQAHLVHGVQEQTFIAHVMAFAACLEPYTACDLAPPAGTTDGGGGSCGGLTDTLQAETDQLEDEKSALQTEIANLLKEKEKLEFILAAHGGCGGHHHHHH
Experimental endpoint: epitope bin

[
  {
    "Molecule": "B09: ALPP targeting VHH domain, SEQ ID NO: 21 (protein) VHH: QVQLVESGGGSVQAGGSLRLSCAASGPSLSHYAMGWFRQAPGKEREFVAGISWGGGRTSYTDSVKGRFTISRDNAKNTVYLQMNNLKPEDTGVYYCAGRYGRGRNVEYEYDYWGQGTQVTVSS",
    "Test result": "one"
  },
  {
    "Molecule": "F05: ALPP/ALPPL2 targeting VHH domain, SEQ ID NO: 34 (protein) VHH: QVQLVESGGGLVQAGGSLRLSCAASGRAFGDYNIGWFRQAPGKEREFVARRTWDGSSTRYDDSVKGRFTVSIDNAKNTAYLQMNSLKTEDTAVYYCAAGRYSRVRGWEYDYWGQGTQVTVSS",
    "Test result": "one"
  },
  {
    "Molecule": "E10: ALPP/ALPPL2 targeting VHH domain, SEQ ID NO: 31 (protein) VHH: QVQLVESGGGLVQAGGSLRLSCAVSGRALSDYNIGWFRQAPGKEREFVARKTWDGSSTRYDDSVKGRFTVSIEDAKNTAYLQMSSLKTEDTAVYYCAAGRYSRARGWEYDYWGQGTQVTVSS",
    "Test result": "one"
  },
  {
    "Molecule": "B01: ALPP/ALPPL2 targeting VHH domain, SEQ ID NO: 20 (protein) VHH: QVQLVESGGGLVQAGGSLRLSCEVTRSPMPIDTMAWYRQAPGRQRELVAIISRSGSTNYADSVKGRFTISRNDTKSTMYKSTMYLKMNTLELEDTGVYYCNAVGLWNGAEYWGQGTQVTVSS",
    "Test result": "three"
  }
]

Look up epitope bin for this molecule: G03: ALPP targeting VHH domain, SEQ ID NO: 38 (protein) VHH: QVQLVESGGGTAQAGGSLRLACAASGRSVTMGWLGWVPRAERDDLEFITWFNWGTYYANSVNGRFTISTDNADNTVYPQMNRLKPENPAVYYCASFTGYRPLINRLNDVSDCGHGALVAVSS one

Look up epitope bin for this molecule: D10: ALPP targeting VHH domain, SEQ ID NO: 28 (protein) VHH: QVQLVESGGGLVQPGGSLRLSCAASGSIFSVNTMGWYRQAPGKQRDLVAVATSGGTIHYADSVKGRFTISRDNAKNTVYLQMNSLKPEDTAVYYCNLVVPYGMIAGDHDYWGQGTKVTVSS five

Look up epitope bin for this molecule: D04: ALPP/ALPPL2 targeting VHH domain, SEQ ID NO: 26 (protein) VHH: QVQLVESGGGLVQPGGSLRLSCAASESTFSINVMGWYRQAPGKQRELVATITSGDITNYADSVKGRFTISRDNAENTVYLRTNSLKPEDTAVYYCNARGEYHSGNEYDYWGQGTQVTVSS four

Look up epitope bin for this molecule: A05: ALPP/ALPPL2 targeting VHH domain, SEQ ID NO: 16; tested C-terminally His-tagged (protein, C-terminal His tag, tested C-terminally His-tagged) VHH: QVQLVESGGGLVQAGASLTLSCAASGFTFNTRSIVWFRQAPGKEREAVSCISKVAGSTYYGDSVQGRFSSSTDNAKNTVSLQMNSLKPEDTAVYTCAASFAPNCYGWSVAANMEYWGEGTMVTVSS one

Look up epitope bin for this molecule: C07: ALPP/ALPPL2 targeting VHH domain, SEQ ID NO: 25 (protein) VHH: QVQLVESGGGLVQAGESLRLACAASGTIFSGNAVGWYRQAPEKQREWVSSITDYGDTDYAEAVKGRFTISRDNAKNTVYLQMNSLKPEDTAVYYCYVYQRGESEEYWGQGTQVTVSS four

Look up epitope bin for this molecule: F08: ALPP/ALPPL2 targeting VHH domain, SEQ ID NO: 35 (protein) VHH: QVQLVESGGGSVQAGGSLRLSCAASGPSLSNYAMGWFRQAPGKEREFVAGISWGGGRTSYTDSVKGRFTISRDNAKNTVYLQMNNLKPEDTGVYYCAGRYGRGRNVEYEYDYWGQGTQVTVSS one

Look up epitope bin for this molecule: E06: ALPP/ALPPL2 targeting VHH domain, SEQ ID NO: 30 (protein) VHH: QVHLVESGGGLVQAGGSLRLSCAASRRSFSEYAMGWFRQAPGKEREFVAAIGWSGVIEYADSVKGRFTISRDNAKDTVYLQMNSLKPEDTAVYYCAAGLGIRVVSQTPAYWGQGTQVTVSS one

Look up epitope bin for this molecule: B11: ALPP targeting VHH domain, SEQ ID NO: 22 (protein) VHH: QVHLVESGGGSVQAGGSLRLSCAASGPSLSNYAMGWFRQAPGKEREFVAGISWGGGRTSYTDSVKGRFTISRDNAKNTVYLQMNNLKPEDTGVYYCAGRYGRGRNVEYEYDYWGQGTQVTVSS one

Look up epitope bin for this molecule: A06: ALPP/ALPPL2 targeting VHH domain, SEQ ID NO: 17; tested C-terminally His-tagged (protein, C-terminal His tag, tested C-terminally His-tagged) VHH: QVHLVESGGGLVQAGGSLRLSCAASGRTFLSMGWFRQAPGKEREFVAAISWTGGSTGYADSVKGRFTISRESDKETMYLQMNSLKPEDTAVYYCAARGDVYYGGDDATRYKYWGQGTQVTVSS two
